- tested.on: UniProt:Q92633
- Sequence (Q92633 whole entry): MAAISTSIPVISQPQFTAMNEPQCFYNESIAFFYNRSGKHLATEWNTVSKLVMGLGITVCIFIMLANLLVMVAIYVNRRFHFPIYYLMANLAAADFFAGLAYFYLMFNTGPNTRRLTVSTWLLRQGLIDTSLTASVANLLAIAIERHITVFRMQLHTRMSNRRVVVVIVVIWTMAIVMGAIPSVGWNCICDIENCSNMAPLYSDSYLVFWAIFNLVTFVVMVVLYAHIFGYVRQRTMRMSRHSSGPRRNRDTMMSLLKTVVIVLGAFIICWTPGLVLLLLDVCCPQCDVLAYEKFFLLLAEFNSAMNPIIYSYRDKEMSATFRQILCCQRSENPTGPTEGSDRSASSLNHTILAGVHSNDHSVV
- method.summary: Beta-Arrestin based assay for human LPA1R antagonists (PathHunter)
- assay.setup: CHO cells expressing ProLink tagged human LPA1R; antagonist mode, 0.5 micromolar LPA
measured.endpoint: EC50

[[record]]
compound = "Cc1nsc(C2CCC(c3ccc(C4(C(=O)O)CC4)cc3)CC2)c1NC(=O)O[C@H](C)c1ccccc1 (single isomer, unassigned) [IT060]"
tested_on = "UniProt:Q92633"
measured_result = "> 500 nM"

[[record]]
compound = "CCOC(=O)N1CCn2c(nc(-c3ccc(-c4ccc(C5(C(=O)O)CC5)cc4)cc3)c2NC(=O)O[C@H](C)c2ccccc2)C1 [IT023]"
tested_on = "UniProt:Q92633"
measured_result = "> 500 nM"

[[record]]
compound = "CCN1CCn2c(nc(-c3ccc(-c4ccc(C5(C(=O)O)CC5)cc4)cc3)c2NC(=O)O[C@H](C)c2ccccc2)C1 [IT024]"
tested_on = "UniProt:Q92633"
measured_result = "> 500 nM"

[[record]]
compound = "C[C@@H](OC(=O)Nc1c(C2CCC(c3ccc(C4(C(=O)O)CC4)cc3)CC2)cnn1C)c1ccccc1 (some centres unmarked) [IT066]"
tested_on = "UniProt:Q92633"
measured_result = "50 to 500 nM"


EC50 lookup needed for Cc1nsc(-c2ccc(-c3cc4sc(C(=O)O)cc4s3)cc2)c1NC(=O)O[C@H](C)c1ccccc1 [IT025] , thanks. > 500 nM

Likewise for CNC(=O)N1CCn2c(nc(-c3ccc(-c4ccc(C5(C(=O)O)CC5)cc4)cc3)c2NC(=O)O[C@H](C)c2ccccc2)C1 [IT022] ? > 500 nM
